# system_name: T1, YWHAH 2-246 14-3-3 (domain begin residue: 2, domain end residue: 246), Q04917
# T1 chain: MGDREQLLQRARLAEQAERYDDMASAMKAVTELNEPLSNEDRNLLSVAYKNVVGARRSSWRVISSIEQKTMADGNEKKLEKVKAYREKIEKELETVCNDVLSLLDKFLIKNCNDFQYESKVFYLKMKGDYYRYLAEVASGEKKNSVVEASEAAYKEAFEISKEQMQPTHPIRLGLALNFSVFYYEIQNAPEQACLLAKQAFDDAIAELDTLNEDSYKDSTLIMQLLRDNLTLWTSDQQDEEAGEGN
# assay_text: phage ELISA signal ratio (GST-PRM binding over GST background); higher = stronger binding of peptide-phage to the PRM
measure: phage ELISA signal ratio

binder: GLHQLDWLDLADIYPK
measure: phage ELISA signal ratio
meas_value: 18.7
//
binder: MDWLDLAGQESLFPLW
measure: phage ELISA signal ratio
meas_value: 17.1
//
binder: GDVSNLSEAMELWRSW
measure: phage ELISA signal ratio
meas_value: 17.6
//
binder: VEYLDLANFDPMAGKW
measure: phage ELISA signal ratio
meas_value: 26.2
//
binder: SLEWLDLAQWTDPHQR
measure: phage ELISA signal ratio
meas_value: 19.8
